Subject Of Test: Vitamin D3 receptor (Rattus norvegicus, UniProt P13053)
Sequence (P13053 whole entry): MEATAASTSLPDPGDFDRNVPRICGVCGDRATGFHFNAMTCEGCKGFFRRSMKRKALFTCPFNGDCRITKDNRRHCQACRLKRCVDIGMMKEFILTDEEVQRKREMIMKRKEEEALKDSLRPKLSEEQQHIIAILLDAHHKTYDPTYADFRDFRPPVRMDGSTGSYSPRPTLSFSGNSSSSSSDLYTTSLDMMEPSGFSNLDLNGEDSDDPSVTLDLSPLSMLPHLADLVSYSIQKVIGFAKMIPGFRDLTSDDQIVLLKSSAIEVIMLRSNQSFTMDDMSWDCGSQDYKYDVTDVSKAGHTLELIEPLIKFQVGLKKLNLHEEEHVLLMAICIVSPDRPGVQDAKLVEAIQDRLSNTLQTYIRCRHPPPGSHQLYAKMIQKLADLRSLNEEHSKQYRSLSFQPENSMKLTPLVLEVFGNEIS
Assay Explanation: Agonist activity at rat VDR in ROS 17/2.8 cells transfected with Cyp24a1 reporter plasmid assessed as increase in Cyp24a1 transcription after 16 hrs by luciferase reporter gene assay
Property Label: EC50 (nM)
Your answer should be a plain number; it is taken to be in nM.

C=C1[C@H](O)CC(=C/C=C/CC(C)(C)C[C@@H](C)CCCC(C)(C)O)C[C@H]1O 2

-- ask Give EC50 for the following compound: C=C1[C@H](O)CC(=C/C=C\CC(C)(C)C[C@@H](C)CCCC(C)(C)O)C[C@H]1O
-- reply 30

Reference for the values: ChEMBL document CHEMBL1926520
